Taken from patent US10994015B2.

- tested.target: EGFR WT (Homo sapiens (Human), UniProt P00533)
- Sequence (P00533 25-1210): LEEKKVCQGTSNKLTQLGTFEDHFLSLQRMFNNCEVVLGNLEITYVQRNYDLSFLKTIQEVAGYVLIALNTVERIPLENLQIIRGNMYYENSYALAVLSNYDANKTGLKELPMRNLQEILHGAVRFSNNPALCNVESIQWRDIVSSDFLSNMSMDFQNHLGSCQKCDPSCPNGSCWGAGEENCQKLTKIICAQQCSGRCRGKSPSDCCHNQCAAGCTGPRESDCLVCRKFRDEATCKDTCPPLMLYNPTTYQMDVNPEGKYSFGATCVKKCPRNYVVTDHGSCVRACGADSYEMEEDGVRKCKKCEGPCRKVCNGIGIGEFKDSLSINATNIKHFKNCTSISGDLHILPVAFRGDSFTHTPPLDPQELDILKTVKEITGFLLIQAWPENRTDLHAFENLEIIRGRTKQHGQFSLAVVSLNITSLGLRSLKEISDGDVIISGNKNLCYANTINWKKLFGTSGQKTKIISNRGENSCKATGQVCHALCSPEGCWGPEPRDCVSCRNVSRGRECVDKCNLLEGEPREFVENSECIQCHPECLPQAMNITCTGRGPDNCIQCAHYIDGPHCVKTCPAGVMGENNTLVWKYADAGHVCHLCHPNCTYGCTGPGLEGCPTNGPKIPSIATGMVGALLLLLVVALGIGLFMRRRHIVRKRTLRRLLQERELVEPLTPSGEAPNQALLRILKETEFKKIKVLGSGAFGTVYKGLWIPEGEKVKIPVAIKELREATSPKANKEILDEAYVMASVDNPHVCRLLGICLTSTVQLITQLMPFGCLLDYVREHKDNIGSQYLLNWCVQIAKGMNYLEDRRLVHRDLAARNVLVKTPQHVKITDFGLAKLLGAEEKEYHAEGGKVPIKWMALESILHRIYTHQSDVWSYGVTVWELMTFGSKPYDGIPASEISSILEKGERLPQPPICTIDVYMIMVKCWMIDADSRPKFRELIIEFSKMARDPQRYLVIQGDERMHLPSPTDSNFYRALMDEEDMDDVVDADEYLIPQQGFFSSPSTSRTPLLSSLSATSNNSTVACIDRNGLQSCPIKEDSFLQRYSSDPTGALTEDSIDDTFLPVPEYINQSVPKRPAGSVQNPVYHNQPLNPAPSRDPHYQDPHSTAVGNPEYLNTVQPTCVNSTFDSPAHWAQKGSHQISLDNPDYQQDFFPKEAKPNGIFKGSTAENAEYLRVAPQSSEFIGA
# pIC50 values compiled below
Reminder that pIC50 is minus the log10 of a molar concentration.

The following compounds have reported results that may help.
>  <compound>
Cc1ncsc1-c1ccc([C@H](C)NC(=O)[C@@H]2C[C@@H](O)CN2C(=O)[C@@H](NC(=O)CN2CCN(CCCC#Cc3cccc4c3C(=O)N(C(C(=O)Nc3nccs3)c3cc(F)ccc3O)C4)CC2)C(C)(C)C)cc1 (stereo partly drawn) [Example 80]

>  <value>
5.33

$$$$
>  <compound>
Cc1ncsc1-c1ccc([C@H](C)NC(=O)[C@H]2C[C@H](O)CN2C(=O)[C@@H](NC(=O)COCCOCCOc2ccc(-c3nccc(Nc4cc5c(cn4)nc(C)n5C(C)C)n3)cc2)C(C)(C)C)cc1 [Example 276]

>  <value>
4.70

$$$$
>  <compound>
COc1cc2ncnc(Nc3ccc(F)c(Cl)c3)c2cc1NC(=O)/C=C/CN(C)CCCOCCCOCC(=O)N[C@H](C(=O)N1CC(O)C[C@@H]1C(=O)NCc1ccc(-c2scnc2C)cc1)C(C)(C)C (stereo partly drawn) [compound 48]

>  <value>
8.33

$$$$
>  <compound>
Cc1ncsc1-c1ccc([C@H](C)NC(=O)[C@H]2C[C@H](O)CN2C(=O)[C@@H](NC(=O)COCCOCCOCCOCCOc2ccc(-c3nccc(Nc4cc5c(cn4)nc(C)n5C(C)C)n3)cc2)C(C)(C)C)cc1 [compound 279]

>  <value>
4.80

$$$$
>  <compound>
Cc1ncsc1-c1ccc(CNC(=O)[C@@H]2C[C@@H](O)CN2C(=O)[C@@H](NC(=O)COCCOCCOc2ccc(-c3ccc4ncnc(Nc5ccc(OCc6cccc(F)c6)c(Cl)c5)c4c3)cc2)C(C)(C)C)cc1 [Example 97]

>  <value>
5.82

$$$$
>  <compound>
Cc1ncsc1-c1ccc(CNC(=O)[C@@H]2C[C@@H](O)CN2C(=O)[C@@H](NC(=O)COCCOCCOCCOCC#Cc2cccc3c2C(=O)N(C(C(=O)Nc2nccs2)c2cc(F)ccc2O)C3)C(C)(C)C)cc1 (stereo partly drawn) [compound 254]

>  <value>
5.96

$$$$

// query pIC50 value for entry O=C1CCC(N2C(=O)c3ccc(N4CCN(CC5CCN(CC#Cc6cccc7c6C(=O)N(C(C(=O)Nc6nccs6)c6cc(F)ccc6O)C7)CC5)CC4)cc3C2=O)C(=O)N1 (stereo not drawn) [compound 293]
5.77

Cc1ncsc1-c1ccc(CNC(=O)[C@@H]2C[C@@H](O)CN2C(=O)[C@H](C(C)C)N2Cc3ccccc3C2=O)c(OCCOCCN2CCN(Cc3ccc(-c4cc5c(NCc6ccccc6Cl)ncnc5[nH]4)cc3)CC2)c1 [compound 107] , same question.
6.85

---

- tested.target: EGFR L858R/T790M (Homo sapiens (Human), UniProt P00533, L858R/T790M)
- Sequence (P00533 25-1210 T790M/L858R): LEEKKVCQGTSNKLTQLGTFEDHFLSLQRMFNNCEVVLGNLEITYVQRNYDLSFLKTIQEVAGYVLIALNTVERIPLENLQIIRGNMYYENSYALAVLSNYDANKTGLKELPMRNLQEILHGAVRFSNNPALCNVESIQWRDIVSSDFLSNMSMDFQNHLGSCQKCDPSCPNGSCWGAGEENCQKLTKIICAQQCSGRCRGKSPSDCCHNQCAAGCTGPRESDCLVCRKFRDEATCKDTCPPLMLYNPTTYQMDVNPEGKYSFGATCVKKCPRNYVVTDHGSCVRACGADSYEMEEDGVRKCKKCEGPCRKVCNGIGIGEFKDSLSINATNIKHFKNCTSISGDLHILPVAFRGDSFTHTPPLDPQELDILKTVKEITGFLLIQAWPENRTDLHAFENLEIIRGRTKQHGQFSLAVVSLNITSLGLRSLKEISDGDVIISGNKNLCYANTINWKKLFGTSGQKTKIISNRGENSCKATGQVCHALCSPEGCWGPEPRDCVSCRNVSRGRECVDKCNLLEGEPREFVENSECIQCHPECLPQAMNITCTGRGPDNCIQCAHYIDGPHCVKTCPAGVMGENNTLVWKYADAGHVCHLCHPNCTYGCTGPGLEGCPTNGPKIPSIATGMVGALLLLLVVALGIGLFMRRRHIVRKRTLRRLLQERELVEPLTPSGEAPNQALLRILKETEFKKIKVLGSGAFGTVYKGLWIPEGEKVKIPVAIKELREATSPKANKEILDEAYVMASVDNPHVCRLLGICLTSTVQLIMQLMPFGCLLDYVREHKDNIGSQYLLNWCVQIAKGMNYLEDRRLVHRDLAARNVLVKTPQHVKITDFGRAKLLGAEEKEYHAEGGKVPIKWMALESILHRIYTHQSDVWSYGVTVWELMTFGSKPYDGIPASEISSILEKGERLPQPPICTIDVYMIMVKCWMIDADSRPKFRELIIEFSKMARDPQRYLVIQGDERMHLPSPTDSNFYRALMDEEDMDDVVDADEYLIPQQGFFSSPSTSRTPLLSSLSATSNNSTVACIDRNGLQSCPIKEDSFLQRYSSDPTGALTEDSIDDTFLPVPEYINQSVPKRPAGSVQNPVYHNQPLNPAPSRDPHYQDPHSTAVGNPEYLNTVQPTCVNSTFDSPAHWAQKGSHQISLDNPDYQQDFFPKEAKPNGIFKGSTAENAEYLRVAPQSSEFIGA
- experiment.summary: TR-FRET assay for ERBB kinases
- experimental.conditions: geometric mean if measured more than once
property.label: IC50
Answer format reminder: number followed by unit.

The following compounds have reported results that may help.
>  <compound>
Cc1ncsc1-c1ccc(CNC(=O)[C@@H]2C[C@@H](O)CN2C(=O)[C@H](C(C)C)N2Cc3ccccc3C2=O)c(OCCN2CCN(Cc3ccc(-c4cc5c(NCc6ccccc6Cl)ncnc5[nH]4)cc3)CC2)c1

>  <IC50>
4.9 µM

$$$$
>  <compound>
COC1(CCN2CCN(CCCOCCCOCC(=O)N[C@H](C(=O)N3C[C@H](O)C[C@H]3C(=O)N[C@@H](C)c3ccc(-c4scnc4C)cc3)C(C)(C)C)CC2)CCN(c2nccc(Nc3cc4c(cn3)nc(C)n4C(C)C)n2)CC1

>  <IC50>
19 µM

$$$$
>  <compound>
Cc1ncsc1-c1ccc([C@H](C)NC(=O)[C@H]2C[C@H](O)CN2C(=O)[C@@H](NC(=O)COCCCC#Cc2cccc3c2C(=O)N(C(C(=O)Nc2nccs2)c2cc(F)ccc2O)C3)C(C)(C)C)cc1 (some centres unmarked)

>  <IC50>
6.2 µM

$$$$
>  <compound>
O=C1CCC(N2C(=O)c3ccc(OCCOCCOCCN4CCN(Cc5ccc(-c6cc7c(NCc8ccccc8Cl)ncnc7[nH]6)cc5)CC4)cc3C2=O)C(=O)N1 (centres unmarked)

>  <IC50>
7.2 µM

$$$$

// query IC50 value for entry O=C1CCC(N2C(=O)c3cccc(NCCOCCOCCOCCOCCOCCOCC#Cc4cccc5c4C(=O)N(C(C(=O)Nc4nccs4)c4cc(F)ccc4O)C5)c3C2=O)C(=O)N1 (centres unmarked)
3.1 µM

---

- tested.target: HER3 (Homo sapiens (Human))
- Sequence (P21860 20-1342, species assumed): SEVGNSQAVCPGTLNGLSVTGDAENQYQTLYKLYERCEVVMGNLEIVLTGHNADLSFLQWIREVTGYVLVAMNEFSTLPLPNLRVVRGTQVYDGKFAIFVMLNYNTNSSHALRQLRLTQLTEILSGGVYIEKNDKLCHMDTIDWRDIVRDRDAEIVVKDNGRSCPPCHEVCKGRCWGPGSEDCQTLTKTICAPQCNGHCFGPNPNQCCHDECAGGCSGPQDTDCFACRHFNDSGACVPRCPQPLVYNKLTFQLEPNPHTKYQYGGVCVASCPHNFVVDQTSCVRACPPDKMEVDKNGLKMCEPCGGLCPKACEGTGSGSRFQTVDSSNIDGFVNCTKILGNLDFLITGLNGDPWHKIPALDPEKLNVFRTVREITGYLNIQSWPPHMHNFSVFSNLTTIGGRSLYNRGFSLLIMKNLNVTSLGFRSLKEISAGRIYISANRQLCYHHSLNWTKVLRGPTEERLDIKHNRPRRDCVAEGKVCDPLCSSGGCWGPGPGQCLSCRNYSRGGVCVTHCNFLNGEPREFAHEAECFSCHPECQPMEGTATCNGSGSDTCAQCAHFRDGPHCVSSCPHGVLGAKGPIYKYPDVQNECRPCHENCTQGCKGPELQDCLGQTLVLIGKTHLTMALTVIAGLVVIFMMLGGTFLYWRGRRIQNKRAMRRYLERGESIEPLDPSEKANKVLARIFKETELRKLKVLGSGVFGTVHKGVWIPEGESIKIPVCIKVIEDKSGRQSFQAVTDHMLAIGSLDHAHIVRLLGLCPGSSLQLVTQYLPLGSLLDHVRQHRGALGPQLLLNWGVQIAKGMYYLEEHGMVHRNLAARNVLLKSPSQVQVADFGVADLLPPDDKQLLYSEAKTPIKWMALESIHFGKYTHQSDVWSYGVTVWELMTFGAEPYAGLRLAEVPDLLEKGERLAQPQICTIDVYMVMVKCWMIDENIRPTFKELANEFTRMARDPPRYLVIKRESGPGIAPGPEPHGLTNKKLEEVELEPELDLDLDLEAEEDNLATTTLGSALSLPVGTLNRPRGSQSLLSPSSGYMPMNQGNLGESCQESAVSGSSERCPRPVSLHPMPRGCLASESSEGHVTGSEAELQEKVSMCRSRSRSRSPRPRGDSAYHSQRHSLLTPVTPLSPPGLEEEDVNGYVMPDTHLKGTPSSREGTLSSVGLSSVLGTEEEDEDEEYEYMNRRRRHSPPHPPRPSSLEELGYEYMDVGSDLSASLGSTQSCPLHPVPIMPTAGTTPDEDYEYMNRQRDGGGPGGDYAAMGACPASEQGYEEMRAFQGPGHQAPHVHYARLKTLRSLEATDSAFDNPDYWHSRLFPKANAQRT
pIC50: −log10 of the molar value.
property.label: pIC50

The following compounds have reported results that may help.
>  <compound>
COC1CCN(c2nccc(Nc3cc4c(cn3)nc(COCCOCC(=O)N[C@H](C(=O)N3C[C@@H](O)C[C@@H]3C(=O)N[C@@H](C)c3ccc(-c5scnc5C)cc3)C(C)(C)C)n4C(C)C)n2)CC1

>  <pIC50>
< 4.52

$$$$
>  <compound>
COc1cc2ncnc(Nc3ccc(F)c(Cl)c3)c2cc1NC(=O)/C=C/CN(C)CCCOCCCOCC(=O)N[C@H](C(=O)N1CC(O)C[C@@H]1C(=O)NCc1ccc(-c2scnc2C)cc1)C(C)(C)C (some centres unmarked)

>  <pIC50>
4.70

$$$$
>  <compound>
COC1CCN(c2nccc(Nc3cc4c(cn3)nc(COCCOCCOCCOCCOCC(=O)N[C@H](C(=O)N3C[C@H](O)C[C@H]3C(=O)N[C@@H](C)c3ccc(-c5scnc5C)cc3)C(C)(C)C)n4C(C)C)n2)CC1

>  <pIC50>
< 4.52

$$$$

Give the reported pIC50 for COC1CCN(c2nccc(Nc3cc4c(cn3)nc(COCCN3CCN(CCOc5ccc6c(c5)C(=O)N(C5CCC(=O)NC5=O)C6=O)CC3)n4C(C)C)n2)CC1 (centres unmarked) (system: HER3 (Homo sapiens (Human))).
5.07

COC1CCN(c2nccc(Nc3cc4c(cn3)nc(COCCOCCON3CCN(c5ccc6c(c5)C(=O)N(C5CCC(=O)NC5=O)C6=O)CC3)n4C(C)C)n2)CC1 (centres unmarked) , same question.
< 4.52

COC1CCN(c2nccc(Nc3cc4c(cn3)nc(COCCOCCOCCOCC(=O)N[C@H](C(=O)N3C[C@@H](O)C[C@@H]3C(=O)N[C@@H](C)c3ccc(-c5scnc5C)cc3)C(C)(C)C)n4C(C)C)n2)CC1 , same question.
< 4.52

---

Below are IC50 values recorded for EGFR WT (Homo sapiens (Human), UniProt P00533).
Write it as a number; the unit nM goes unstated.

>  <compound>
O=C1CCC(N2C(=O)c3ccc(N4CCN(CCCOCCCCNc5cccc6c5C(=O)N(C(C(=O)Nc5nccs5)c5cc(F)ccc5O)C6)CC4)cc3C2=O)C(=O)N1 (centres unmarked)

>  <reading.unit>
nM

>  <IC50>
1200

$$$$
>  <compound>
O=C1CCC(N2C(=O)c3ccc(OCCOCCOCC#Cc4cccc5c4C(=O)N([C@@H](C(=O)Nc4nccs4)c4cc(F)ccc4O)C5)cc3C2=O)C(=O)N1 (some centres unmarked)

>  <reading.unit>
nM

>  <IC50>
2200

$$$$

// query IC50 value for entry O=C1CCC(N2C(=O)c3ccc(OCCN4CCN(Cc5ccc(C6Cc7c(NCc8ccccc8Cl)ncnc7N6)cc5)CC4)cc3C2=O)C(=O)N1 (centres unmarked)
12

CC(C)n1nc(N2CCN(CC3CCN(c4ccc5c(c4)C(=O)N(C4CCC(=O)NC4=O)C5=O)CC3)CC2)c2cnc(Nc3ccnc(-c4cnn(S(=O)(=O)C5CC5)c4)n3)cc21 (centres unmarked) , same question.
95

Cc1ncsc1-c1ccc([C@H](C)NC(=O)[C@@H]2C[C@@H](O)CN2C(=O)[C@@H](NC(=O)COCCCOc2ccc(N3CCN(CCOCc4nc5cnc(Nc6ccnc(-c7cnn(S(=O)(=O)C8CC8)c7)n6)cc5n4C(C)C)CC3)cc2)C(C)(C)C)cc1 , same question.
13000

---

- tested.target: EGFR L858R/T790M (Homo sapiens (Human), UniProt P00533, L858R/T790M)
- experiment.summary: TR-FRET assay for ERBB kinases
- experimental.conditions: geometric mean if measured more than once
# pIC50 values compiled below
Reminder that pIC50 is minus the log10 of a molar concentration.

>  <molecule>
O=C1CCC(N2C(=O)c3ccc(OCCOCCOCC#Cc4cccc5c4C(=O)N([C@@H](C(=O)Nc4nccs4)c4cc(F)ccc4O)C5)cc3C2=O)C(=O)N1 (some centres unmarked)

>  <property.label>
pIC50

>  <value>
5.46

$$$$
>  <molecule>
COC1CCN(c2nccc(Nc3cc4c(cn3)nc(COCCOCCOCC(=O)N[C@H](C(=O)N3C[C@@H](O)C[C@@H]3C(=O)N[C@@H](C)c3ccc(-c5scnc5C)cc3)C(C)(C)C)n4C(C)C)n2)CC1

>  <property.label>
pIC50

>  <value>
4.96

$$$$
>  <molecule>
Cc1ncsc1-c1ccc(CNC(=O)[C@@H]2C[C@@H](O)CN2C(=O)[C@@H](NC(=O)COCCOCCOCCOCCOCC#Cc2cccc3c2C(=O)N(C(C(=O)Nc2nccs2)c2cc(F)ccc2O)C3)C(C)(C)C)cc1 (some centres unmarked)

>  <property.label>
pIC50

>  <value>
6.08

$$$$

Query molecule follows.
// query pIC50 value for entry Cc1ncsc1-c1ccc([C@H](C)NC(=O)[C@@H]2C[C@@H](O)CN2C(=O)[C@@H](NC(=O)COCCOCCOCCOCCOCCOCCOCC#Cc2cccc3c2C(=O)N(C(C(=O)Nc2nccs2)c2cc(F)ccc2O)C3)C(C)(C)C)cc1 (some centres unmarked)
5.34
